- protocol.text: FRG1 promoter luciferase signal modulators, primary screen, FRG1 inhibition for FSHD, cell-based, C2C12 myotubes, firefly/Renilla luciferase, luminescence (AID 1084)
- measurement.parameters: higher = more signal, called active from +8 up or from −8 down
Provide the recorded z-score for the entries that follow.
Enter the number alone.

Returns the measured z-score for the input compound. Input: COCC1=C2[C@@H](CCc3ccccc3)OB(O)C[C@@H]2[C@@H]2C(=O)N(C)C(=O)[C@@H]2C1 -3.25

Entry to check: COCC(=C=CC[C@@H](O)c1ccc(OCCO)cc1)CCO 1.67

And COCCCNC(=O)[C@@]1(Sc2ccc(C)cc2)CC(=O)N(C(C)C)[C@@H]1c1ccc(CO)cc1I ? -1.2

Moving on to the next compound: COc1cc(NN2C(C(O)c3cc(OC)c(OC)c(OC)c3)C=CC3C(=O)N(c4ccccc4)C(=O)C32)cc(OC)c1OC (stereo not drawn) 0.997

Entry CC(C)c1ccc(NN2C(C(O)Cc3ccccc3)C=CC3C(=O)N(c4ccccc4)C(=O)C32)cc1 (stereo not drawn) please 0.0899

// query: C#C[C@@H](CC)O[Si](C#CCCCC#N)(C(C)C)C(C)C -0.0405

Query [N-]=[N+]=NCc1ccccc1[C@H]1OC(c2ccc(OCCCO)cc2)=N[C@@]1(Cc1ccccc1)C(=O)NCCN1CCOCC1 next -0.731

Moving on to the next compound: CCCCC(=O)N(CCN1CCOCC1)[C@@H]1CC(C(=O)NCCO)=C[C@H](Oc2c(I)cc(CO)cc2OC)[C@H]1O 0.912
